System: Human acute myelocytic leukemia cells HL-60
Test: Inhibitory activity on tumor cells, viable cell count by modified Mosmann (MTT) method
Format: cell-based
Details: HL-60 cells, 50,000 cells/well, 24 hours culture with compound, then MTT 3 hours; average of at least triplicate; read-out: IC50 (fifty percent inhibitory concentration)
endpointLabel: IC50 (nM)
Express your answer in nM, writing the number without its unit.

Query: So what's the measured IC50 for this one? CP(c1nc2ccccc2nc1P(C)C(C)(C)C)C(C)(C)C.CP(c1nc2ccccc2nc1P(C)C(C)(C)C)C(C)(C)C.[Au+].[Cl-] (stereo not shown) [Example 1]
Reply: 517
